Collected Ligand-pharmacophore element distance, pharmacophore element C2 values appear next to each entry.
# TARGET_OR_SYSTEM: MASP-2 CCP2-SP (Homo sapiens (Human), UniProt O00187)
# Sequence (O00187 445-686): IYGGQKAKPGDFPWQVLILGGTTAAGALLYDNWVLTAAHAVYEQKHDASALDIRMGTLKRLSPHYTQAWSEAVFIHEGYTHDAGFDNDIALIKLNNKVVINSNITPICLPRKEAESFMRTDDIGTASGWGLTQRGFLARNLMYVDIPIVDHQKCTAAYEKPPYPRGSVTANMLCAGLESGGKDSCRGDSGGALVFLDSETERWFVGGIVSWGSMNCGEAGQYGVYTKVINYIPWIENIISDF
# Sequence (O00187 364-432 partner): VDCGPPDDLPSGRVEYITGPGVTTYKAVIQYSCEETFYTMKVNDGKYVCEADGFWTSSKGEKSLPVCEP
# MEASUREMENT_NOTES: MASP-2 co-crystallization, X-ray crystallography and structure analysis (H-bonds, van der Waals contacts);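 for Ligand-pharmacophore element distance, pharmacophore element C2: distance from averaged pharmacophore element to bound ligand; missing value means element absent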
# TEST_PARAMETERS: Table A4-1; element C2
PARAMETER_MEASURED: Ligand-pharmacophore element distance, pharmacophore element C2

[[record]]
compound = "CC(=O)Nc1ccc(CCNC(CCc2ccccc2)C(=O)NC(C)C(=O)NCc2ccc(C(=N)N)cc2)cc1.Cl.Cl (stereo not shown) [1345_2]"
test_value = 0

[[record]]
compound = "C[C@H](NC(=O)[C@@H](CCc1ccccc1)NCCCc1ccc(O)cc1)C(=O)NCc1ccc(C(=N)N)cc1.Cl.Cl"
test_value = 0

[[record]]
compound = "Cc1nc(N)ccc1CNC(=O)[C@H](C)NC(=O)[C@H]1C[C@@H](c2cccc3ccccc23)CCN1.Cl.Cl [1297_4]"
test_value = 0.31

[[record]]
compound = "Cc1nc(N)ccc1CNC(=O)[C@H](C)NC(=O)[C@H]1C[C@H](Cc2ccccc2Br)CN1.O=C(O)C(F)(F)F.O=C(O)C(F)(F)F [1372_B]"
test_value = 0


* * *

# TARGET_OR_SYSTEM: MASP-2 CCP2-SP (Homo sapiens (Human), UniProt O00187)
# MEASUREMENT_NOTES: MASP-2 co-crystallization, X-ray crystallography and structure analysis (H-bonds, van der Waals contacts)
# TEST_PARAMETERS: Table A7-1; between pharmacophore elements of the bound compound
Structures can show the parent of a compound that is named as a salt.
PARAMETER_MEASURED: Pharmacophore torsion angle a(O1, H4, O2, CA1)

[[record]]
compound = "N=C(N)c1ccc(CNC(=O)C(CF)NC(=O)[C@H](N)CCc2ccccc2)cc1 (stereo partly shown) [compound 1050, Dihydrochloride]"
test_value = "−58.32"

[[record]]
compound = "Cc1nc(N)ccc1CNC(=O)[C@H](C)NC(=O)c1cc(Cc2ccccc2)n[nH]1 [compound 1367]"
test_value = "−85.54"

[[record]]
compound = "Cc1nc(N)ccc1CNC(=O)[C@H](C)NC(=O)[C@H]1C[C@H](Cc2cc(Cl)cc(Cl)c2)CN1 [compound 1435, Dihydrochloride]"
test_value = "−83.48"

[[record]]
compound = "C[C@H](NC(=O)[C@H]1C[C@@H](c2ccccc2)CCN1)C(=O)NCc1cc(Cl)ccc1O.Cl [1078_2]"
test_value = "−57.88"

[[record]]
compound = "C[C@H](NC(=O)[C@@H](CCc1ccccc1)NCc1ccc(C(=O)N2CCOCC2)cc1)C(=O)NCc1ccc(C(=N)N)cc1.Cl.Cl [1153_B]"
test_value = 23.08

[[record]]
compound = "Cc1nc(N)ccc1CNC(=O)[C@H](C)NC(=O)[C@H]1C[C@@H](c2ccccc2)CCN1CCC(=O)O [compound 1411, Trifluoroacetate salt]"
test_value = "−82.11"

[[record]]
compound = "C[C@H](NC(=O)[C@H]1C[C@H](Cc2ccccc2)CN1)C(=O)NCc1ccc(C(=N)N)cc1.Cl.Cl [1306_1]"
test_value = "−170.32"


* * *

# TARGET_OR_SYSTEM: MASP-2 CCP2-SP (Homo sapiens (Human), UniProt O00187)
# MEASUREMENT_NOTES: MASP-2 co-crystallization, X-ray crystallography and structure analysis (H-bonds, van der Waals contacts)
# TEST_PARAMETERS: Table A1 (H-Bonds); GLY 656 O
Structures can show the parent of a compound that is named as a salt.
PARAMETER_MEASURED: H-bond distance to MASP-2 GLY 656 atom O

[[record]]
molecule = "Cc1nc(N)ccc1CNC(=O)[C@H](C)NC(=O)c1cc(Cc2ccccc2)n[nH]1 [compound 1367]"
test_value = 2.77

[[record]]
molecule = "C[C@H](NC(=O)[C@H](N)CCc1cccc(Cl)c1)C(=O)NCc1ccc(C(=N)N)cc1 [compound 1081]"
test_value = 2.92

[[record]]
molecule = "Cc1nc(N)ccc1CNC(=O)[C@H](C)NC(=O)[C@H]1C[C@H](Cc2cccc(Cl)c2)CN1 [compound 1328]"
test_value = 2.82

[[record]]
molecule = "C[C@H](NC(=O)[C@H]1C[C@@H](c2ccccc2)CCN1)C(=O)NCc1cnc2[nH]cc(Cl)c2c1 [compound 1433]"
test_value = 2.75

[[record]]
molecule = "Cc1nc(N)ccc1CNC(=O)[C@H](C)NC(=O)[C@H]1C[C@@H](Cc2ccccc2)CCN1 [compound 1353]"
test_value = 2.85

[[record]]
molecule = "C[C@H](NC(=O)[C@H](N)CCCc1ccccc1)C(=O)NCc1ccc(C(=N)N)cc1 [compound 1042]"
test_value = 2.34

[[record]]
molecule = "Cc1nc(N)ccc1CNC(=O)[C@H](C)NC(=O)[C@H]1C[C@@H](c2ccccc2)CCN1 [compound 1253, Dihydrochloride]"
test_value = 2.83


* * *

# TARGET_OR_SYSTEM: MASP-2 CCP2-SP (Homo sapiens (Human))
# MEASUREMENT_NOTES: MASP-2 co-crystallization, X-ray crystallography and structure analysis (H-bonds, van der Waals contacts)
# TEST_PARAMETERS: Table A5-1 pharmacophore: distance between elements, S2/S1 region
Structures can show the parent of a compound that is named as a salt.
PARAMETER_MEASURED: d(CA1,O1)

[[record]]
compound = "Cc1cccc([C@H]2CN[C@@H](C(=O)N[C@@H](C)C(=O)NCc3ccc(N)nc3C)C2)c1 [compound 1257, Dihydrochloride]"
target_or_system = "MASP-2 CCP2-SP (Homo sapiens (Human))"
parameter_measured = "d(CA1,O1)"
test_value = 4.45

[[record]]
compound = "C[C@H](NC(=O)[C@@H](CCc1ccccc1)NCc1ccc(N2CCOCC2)cc1)C(=O)NCc1ccc(C(=N)N)cc1"
target_or_system = "MASP-2 CCP2-SP (Homo sapiens (Human))"
parameter_measured = "d(CA1,O1)"
test_value = 5.15

[[record]]
compound = "N=C(N)c1ccc(CNC(=O)[C@@H]2CCN2C(=O)[C@H]2Cc3ccccc3CN2)cc1"
target_or_system = "MASP-2 CCP2-SP (Homo sapiens (Human))"
parameter_measured = "d(CA1,O1)"
test_value = 4.35

[[record]]
compound = "Cc1nc(N)ccc1CNC(=O)[C@H](C)NC(=O)[C@H]1C[C@@H](c2ccccc2)CCN1C"
target_or_system = "MASP-2 CCP2-SP (Homo sapiens (Human))"
parameter_measured = "d(CA1,O1)"
test_value = 4.27

[[record]]
compound = "C[C@H](NC(=O)[C@H]1C[C@@H](c2ccccc2)CCN1)C(=O)NCc1cc(Cl)ccc1O.Cl [1078_10]"
target_or_system = "MASP-2 CCP2-SP (Homo sapiens (Human))"
parameter_measured = "d(CA1,O1)"
test_value = 4.35

[[record]]
compound = "Cc1nc(N)ccc1CNC(=O)[C@H](C)NC(=O)c1cc(Cc2ccccc2)n[nH]1"
target_or_system = "MASP-2 CCP2-SP (Homo sapiens (Human))"
parameter_measured = "d(CA1,O1)"
test_value = 4.35

[[record]]
compound = "Cc1nc(N)ccc1CNC(=O)C(C)NC(=O)C1CC(c2cccc3ccccc23)CCN1.Cl.Cl (centres unmarked) [1297_1]"
target_or_system = "MASP-2 CCP2-SP (Homo sapiens (Human))"
parameter_measured = "d(CA1,O1)"
test_value = 4.35

[[record]]
compound = "Cc1nc(N)ccc1CNC(=O)[C@H](C)NC(=O)[C@H]1C[C@H](Cc2ccccc2)CN1"
target_or_system = "MASP-2 CCP2-SP (Homo sapiens (Human))"
parameter_measured = "d(CA1,O1)"
test_value = 4.39

[[record]]
compound = "Cc1nc(N)ccc1CNC(=O)[C@H](C)NC(=O)[C@H]1C[C@@H](c2cccc3ccccc23)CCN1.Cl.Cl [1297_5]"
target_or_system = "MASP-2 CCP2-SP (Homo sapiens (Human))"
parameter_measured = "d(CA1,O1)"
test_value = 4.59

[[record]]
compound = "Cc1nc(N)ccc1CNC(=O)[C@H](C)NC(=O)[C@H]1C[C@H](Cc2cccc(Cl)c2)CN1.Cl.Cl [1328_2]"
target_or_system = "MASP-2 CCP2-SP (Homo sapiens (Human))"
parameter_measured = "d(CA1,O1)"
test_value = 4.43

[[record]]
compound = "Cc1nc(N)ccc1CNC(=O)[C@H](C)NC(=O)[C@H]1C[C@H](Cc2cc(-c3ccccc3)cs2)CN1 [compound 1399, Dihydrochloride]"
target_or_system = "MASP-2 CCP2-SP (Homo sapiens (Human))"
parameter_measured = "d(CA1,O1)"
test_value = 4.40

[[record]]
compound = "C[C@H](NC(=O)[C@H]1Cc2c([nH]c3ccccc23)CN1)C(=O)NCc1ccc(C(=N)N)cc1.Cl.Cl [1097_1]"
target_or_system = "MASP-2 CCP2-SP (Homo sapiens (Human))"
parameter_measured = "d(CA1,O1)"
test_value = 4.28

[[record]]
compound = "Cc1nc(N)ccc1CNC(=O)[C@H](C)NC(=O)[C@H]1C[C@@H](c2ccccc2)CCN1 [compound 1253, Dihydrochloride]"
target_or_system = "MASP-2 CCP2-SP (Homo sapiens (Human))"
parameter_measured = "d(CA1,O1)"
test_value = 4.36

[[record]]
compound = "C[C@H](NC(=O)[C@H]1C[C@H](c2ccccc2)CN1)C(=O)NCc1ccc2c(N)nccc2c1"
target_or_system = "MASP-2 CCP2-SP (Homo sapiens (Human))"
parameter_measured = "d(CA1,O1)"
test_value = 5.59

[[record]]
compound = "C[C@H](NC(=O)[C@H]1C[C@@H](c2ccccc2)CCN1)C(=O)NCc1cc(Cl)ccc1O.Cl [1078_14]"
target_or_system = "MASP-2 CCP2-SP (Homo sapiens (Human))"
parameter_measured = "d(CA1,O1)"
test_value = 4.46

[[record]]
compound = "C[C@H](NC(=O)[C@H]1C[C@@H](c2ccccc2)CCN1)C(=O)NCc1cc(Cl)ccc1O.Cl [1078_1]"
target_or_system = "MASP-2 CCP2-SP (Homo sapiens (Human))"
parameter_measured = "d(CA1,O1)"
test_value = 4.56

[[record]]
compound = "Cc1nc(N)ccc1CNC(=O)C(C)NC(=O)C1CC(c2cccc3ccccc23)CCN1.Cl.Cl (centres unmarked) [1297_6]"
target_or_system = "MASP-2 CCP2-SP (Homo sapiens (Human))"
parameter_measured = "d(CA1,O1)"
test_value = 4.73

[[record]]
compound = "Cc1nc(N)ccc1CNC(=O)[C@H](C)NC(=O)[C@H]1C[C@@H](c2ccccc2)CCN1CCC(=O)O [compound 1411, Trifluoroacetate salt]"
target_or_system = "MASP-2 CCP2-SP (Homo sapiens (Human))"
parameter_measured = "d(CA1,O1)"
test_value = 4.37

[[record]]
compound = "Cc1cnc(NCCc2ccccc2)c(=O)n1CC(=O)NCc1ccc2nc(N)[nH]c2c1"
target_or_system = "MASP-2 CCP2-SP (Homo sapiens (Human))"
parameter_measured = "d(CA1,O1)"
test_value = 4.66

[[record]]
compound = "Cc1nc(N)ccc1CNC(=O)C(C)NC(=O)[C@H]1C[C@H](c2cccc(-c3ccccc3)c2)CN1 (stereo in doubt)"
target_or_system = "MASP-2 CCP2-SP (Homo sapiens (Human))"
parameter_measured = "d(CA1,O1)"
test_value = 4.35

[[record]]
compound = "C[C@H](NC(=O)[C@H]1C[C@@H](c2ccccc2)CCN1)C(=O)NCc1cc(Cl)ccc1O.Cl [1078_9]"
target_or_system = "MASP-2 CCP2-SP (Homo sapiens (Human))"
parameter_measured = "d(CA1,O1)"
test_value = 4.31

[[record]]
compound = "Cc1cc(Cl)cc(CNC(=O)[C@H](C)NC(=O)[C@H]2C[C@H](Cc3ccccc3)CN2)c1O"
target_or_system = "MASP-2 CCP2-SP (Homo sapiens (Human))"
parameter_measured = "d(CA1,O1)"
test_value = 4.60

[[record]]
compound = "C[C@H](NC(=O)[C@H](N)C1Cc2ccccc2C1)C(=O)NCc1ccc2c(N)nccc2c1.Cl.Cl [1088_B]"
target_or_system = "MASP-2 CCP2-SP (Homo sapiens (Human))"
parameter_measured = "d(CA1,O1)"
test_value = 5.22

[[record]]
compound = "CC(NC(=O)C1CC(Cc2ccccc2)CN1)C(=O)NCc1cnc2c(c1)c(Cl)cn2C.Cl.Cl (mixture of isomers) [1450_A]"
target_or_system = "MASP-2 CCP2-SP (Homo sapiens (Human))"
parameter_measured = "d(CA1,O1)"
test_value = 5.47

[[record]]
compound = "C[C@H](NC(=O)[C@H]1C[C@@H](c2ccccc2)CCN1)C(=O)NCc1cc(Cl)ccc1O.Cl [1078_11]"
target_or_system = "MASP-2 CCP2-SP (Homo sapiens (Human))"
parameter_measured = "d(CA1,O1)"
test_value = 4.69

[[record]]
compound = "Cc1nc(N)ccc1CNC(=O)[C@H](C)NC(=O)[C@H]1C[C@H](Cc2ccc(-c3ccccc3)cc2)CN1"
target_or_system = "MASP-2 CCP2-SP (Homo sapiens (Human))"
parameter_measured = "d(CA1,O1)"
test_value = 4.47

[[record]]
compound = "C[C@H](NC(=O)[C@H]1C[C@@H](c2ccccc2)CCN1)C(=O)NCc1cc(Cl)ccc1O.Cl [1078_15]"
target_or_system = "MASP-2 CCP2-SP (Homo sapiens (Human))"
parameter_measured = "d(CA1,O1)"
test_value = 4.59

[[record]]
compound = "C[C@H](NC(=O)[C@H]1C[C@H](Cc2ccccc2)CN1)C(=O)NCc1ccc(C(=N)N)cc1.Cl.Cl [1306_1]"
target_or_system = "MASP-2 CCP2-SP (Homo sapiens (Human))"
parameter_measured = "d(CA1,O1)"
test_value = 4.38

[[record]]
compound = "C[C@H](NC(=O)[C@H]1C[C@@H](c2ccccc2)CCN1)C(=O)NCc1cc(Cl)ccc1O.Cl [1078_5]"
target_or_system = "MASP-2 CCP2-SP (Homo sapiens (Human))"
parameter_measured = "d(CA1,O1)"
test_value = 4.48

